Assay: Mouse blood levels of Example 3 following oral and subcutaneous administration
Type: in vivo, albino male mice (strain OLAC: MF-1)
Settings: oral 50 mg/kg, 30 min, read-out: blood conc.
Procedure: Mouse blood levels of Example 3 following its oral and subcutaneous administration Blood levels were assessed in albino male mice (strain OLAC: MF-1, 18-22 g). The dose was 50 mg/kg administered in a 10% ethanol solution orally and subcutaneously. The mice were killed at intervals up to 90 min and the blood assayed microbiologically using B. subtilis ATCC 6633 in TSA at pH 8.0.
Parameter measured: concentration at 0.5 h

Recorded result, CCCCC(=O)C=C(C)CC1OCC(CC2OC2C(C)C(C)O)C(O)C1O (stereo not shown) [Example 3] , concentration at 0.5 h: < 1500 ng/mL
